Cited source: PubChem BioAssay (NCI)

- System: DU-145 prostate
- measurement.notes: NCI-60 one-dose screen, 48 h (100 = growth as untreated, 0 = no growth, -100 = all killed)
- settings: 10 µM unless noted
The panel holds about 83,000 compounds, 20% with a hit somewhere; the sample as a whole holds those more often.
Listing of recorded growth by entry.
readout.type: growth (%)

>>> recorded_measurement("O=C(Nc1ccccc1C(F)(F)F)C1=NCCCCN1")
106
>>> recorded_measurement("O=c1ccc2c(ccc3ncccc32)o1")
117
>>> recorded_measurement("CCOC(=O)C1=C(c2ccccc2)N=C2N(c3ccccc3)N=C(C(C)=O)N2C1c1ccc(Br)cc1 (configuration not stated)")
101
>>> recorded_measurement("Cc1[nH]c(C(=O)Nc2ccc(C(N)=O)cc2OC(C)C)c(Cl)c1Cl")
101
>>> recorded_measurement("COc1cc(CNC(=O)CCCC/C=C/C(C)C)ccc1OCc1cn(-c2cccc([N+](=O)[O-])c2)nn1")
109
>>> recorded_measurement("O=C(NCCN1CCOCC1)c1cncnc1Nc1ccc2c(ccn2Cc2ccccn2)c1")
110
>>> recorded_measurement("Cc1ccc(C2(C)NC(=O)N(CC(=O)Nc3cccc(C)c3)C2=O)cc1 (configuration not stated)")
110
>>> recorded_measurement("O=C(Nc1ncc(Cc2ccccc2)s1)c1ccc2c(c1)OCCO2")
15.2
>>> recorded_measurement("C=CC(=O)NCc1cccc(Nc2ncc(Br)c(NCCCNC(=O)C3CCC3)n2)c1")
9.47
>>> recorded_measurement("COc1ccc(-c2cc(-c3ccc(N(C)C)cc3)nc(NC(=O)c3cccnc3)n2)cc1")
99.5
>>> recorded_measurement("COC(=O)c1c(C(=O)OC)c2ccc3c4ncccc4ccc3n2c1C(=O)c1ccc(C)cc1")
98.7
>>> recorded_measurement("CCOC(=O)/C=C1\\S/C(=N\\Nc2cc(=O)[nH]c3ccc(OC)cc23)N(c2ccccc2)C1=O")
98.6
>>> recorded_measurement("CC(=O)c1c(/C=C/c2ccc(C)cc2)c2ccccc2[nH]c1=O")
94.9
>>> recorded_measurement("CN1CCN(Cc2ccc(NC(=O)c3cncc(C#Cc4cnc(N)c5ncccc45)c3)cc2Cl)CC1")
77.1
>>> recorded_measurement("O=C(/C=C/c1ccc(Cl)cc1)c1ccc(Nc2ccnc3cc(Cl)ccc23)cc1")
145
>>> recorded_measurement("CC(=O)/C(Br)=C/c1ccc(Br)o1")
68.5
>>> recorded_measurement("Oc1ccc(C2OCCO2)c2cccnc12")
56.7
>>> recorded_measurement("COC(=O)[C@H](C)NC(=O)c1ccc(NC(=O)c2[nH]c(C)c(Cl)c2Cl)c(OCCN)c1")
104
>>> recorded_measurement("Cc1c2cnccc2c(C)c2c1c1cc(C(=O)O)ccc1n2C")
4.3
>>> recorded_measurement("O=C1NCCN1/N=C/c1c(Cl)n(Cc2ccc(Cl)cc2)c2ccccc12")
89.4
>>> recorded_measurement("Cn1ncc(CC(=O)O)c1-n1nnc2cc(Cl)ccc2c1=O")
109
>>> recorded_measurement("COc1ccc(S(=O)(=O)NC2c3ccccc3CC2O)cc1OC (configuration not stated)")
111
